Experiment: soluble on expression in E. coli; label from the status in PepcDB or PDB records
Endpoint name: soluble on expression in E. coli

Chain	Observed value
MSLVIRRLYQFCASHVVRNCSSLKCAQNIHGHNYEVEVFIETNRLDNANMALDFGLMQQEMQVFIESFDHAHHFWDKESLEFQRFIENHCVRYVKCSFNLSAESYALMFLYYLTKILQKSVFSNDEGELKVSSVRVHETKNGYAESFLKDEGHHHHHH	soluble
MSLQPPFSILFVDDDEMSRNHFARAMSADYKVYVAQSADEAITVLGKHASEIAVLVTDFRMPGRDGDELLREVAHEYPQIVRILVTAYADKDMLLQTVNTGDVFRIIEKPLRTDMVREVLHLATARYTERETRQQRLLAMDETLAFLAHELNTPLATISLFARSVENDVAEQYDPERQREIGLAAKSMLNNAQYCLTLISSFWATVHKSGGQKSASGGGTRAVRATRLIATLLDTYPFVASQRDWVKVDVEGDFVVHAMPNCVALVLSSLLSNALRALDGGSAPVLRLEVVAFPEPEIRIRDNGPGIAPEVKARLLQDPVTTYAGAGGHGMGMIFCNRIMQSFGGCLRIESTVGAGTTVTMGFPGFNSRMHSADEGHHHHHH	soluble

====

Assay: soluble on expression in E. coli; label from the status in PepcDB or PDB records

Chain	soluble on expression in E. coli
MTHHHHHHAMGPAAGQAYDAGNLDVASSPVKPTLSITKKTLTAAEAPNAKVTMELSVEGAADKYAATGLHIQFDPKLKLIPDEDGALATAGRAARLLELKKAEADTDNSFFTATGSSTNNGKDGVLWSFVLQVPADAQPGDKYDVQVAYQSRTTNEDLFTNVKKDEEGLLMQAWTFTQGIEQGYIQVESTTSLE	soluble
MVKAISTEKDLLLKVDKSFPWETFRSKLKSLYSKKPKWNVISLLKVLLIKLIFDISWNNLEGEIRDSKMFMDFLGGKIPPKSTVFSFYKKLQQTVIQEGETMRTTLMDELNKALDKAISEYREKGFELEVGREKKTEKVSKGTYPPKIDTFLPVKPYPREKRSLSKTGSLEHHHHHH	soluble

====

Test: soluble on expression in E. coli; label from the status in PepcDB or PDB records

Chain	soluble on expression in E. coli
MGSDKIHHHHHHMVIDSIRSSSTGPRDAPGKRLAVGISLFARDGQAIWENGIHQNIAFLAMMLKQSDRIGPVYFLNGGDAKALPAGLDLGGLDVPLVQPRDVSHALDVVIEMGAQLPVDWLKHMKALGKKLVVCFVGHTYSGLTETPMFNRPSGHIFNGGPFDEVWILPKSEKIDAPLLRTLTRAPVHVVPHIWSPYFIERRARELEAAGLRFGYAPGRAKWRLSILEPNISVVKTCHYPMLAADEFHRAQPDAVEHLFVVNSLHMKEHPTFVHFANSLDLVREHKATFEPRIDLPSFLAQHGDAVISHQWENPQNYLYYDVLYGGYPLVHNSPMLGDAGYYYPEFDSAAGGRALQHAWRHHDAHLDDYRRHADALLQAVSIDNRRNLDAYVARLFA	not soluble
MGHHHHHHSHMEFPFDVDALFPERITVLDQHLRPPARRPGTTTPARVDLQQQIMTIIDELGKASAKAQNLSAPITSASRMQSNRHVVYILKDSSARPAGKGAIIGFIKVGYKKLFVLDDREAHNEVEPLCILDFYIHESVQRHGHGRELFQYMLQKERVEPHQLAIDRPSQKLLKFLNKHYNLETTVPQVNNFVIFEGFFAHQHRPPAPSLRATRHSRAAAVDPTPAAPARKLPPKRAEGDIKPYSSSDREFLKVAVEPPWPLNRAPRRATPPAHPPPRSSSLGNSPERGPLRPFVPEQELLRSLRLCPPHPTARLLLAADPGGSPAQRRRTR	not soluble

====

Experiment: soluble on expression in E. coli; label from the status in PepcDB or PDB records

Chain	soluble on expression in E. coli
KTVPSGQAGQGFAEKGPWKKLGLTYTQKTEIQRIHHNTRAEMDKVLTTEQKEQLKAAMQERQTQRSQGEGRGKWKKDIFTSLNLTDAQKSQIQEIRELSRKQMEAVLTPAQRQQLQQMEQNWKSRRQQGNSN	not soluble
MSLTAPRTPGTPRTPRTEHLVLPGVLTAAEAAATVRGILAVQREDGAIPWFRGHHLDPWDHVEAAMALDTADEHEAAERAYAWLARHQNQDGSWYAAYADGDFADVTDRGRETNFVAYVAVGVWHHYLATGDDLFLERMWPVVHAAVEFVLRLQQPGGQIGWRRGDDGTDTTDALLTGSSSVHHALRCALAIAEQREEPQPDWELAAGALRHAIRRHPERFLDKGRYSMDWYYPVLGGALTGTEARSRIQESWDRFVVPGLGVRCVVPNPWVTGGESAELALALWAVGESDHALEILQSIQHLRDPDSGLYWTGYVFEDETVWPRELTAWTAGSLLLAVAALGGHEATCQVFAGERLPRGLDPDCCVEGHHHHHH	soluble
MGSDKIHHHHHHMTFAQIQTFLAVARLGNFHAAARQLNVTQAAVSARVRQLEEELDLRLFERGRRGAELTEAGRFLLPGAEAIASTWTTISKDARHFYAGRVPLRLGGQLSIWDQQLVDLVIWVEETLGALPLALNFDHEMNVQDAIRNGVLDFALTHEQPAPDLTGVALPAERLVLVGSEPFDLGQSDLPLFMNFQLGGQYDAFVARHLSGHAGQHIMMGNCAMGLRYLRKRGGIAFFPVSMVVEDIQHGHLFPVQGVPEMELACNAVYHPSSVLGDLTAQIATAARSLRSREPVVALDTMS	not soluble
GPLGSSWLFLEVIAGPAIGLQHAVNSTSSSKLPVKLGRVSPSDLALKDSEVSGKHAQITWNSTKFKWELVDMGSLNGTLVNSHSISHPDLGSRKWGNPVELASDDIITLGTTTKVYVRISSQNEFQIPFKIGVASDPMA	soluble
MSLSNDTVSGPSMQPSFENGQRLISVRHAQIKRGEVVIVKAPDEPGALYIKRVIGMPGEKIVSKNNQIYINNKKLSQPWLTQGKKMIDAGSDTFYSATQNFTMKSLARSRQFQQYYTKSQLNYINKYNRIPKETYFVMGDHRSVSKDSRYIGTIKRKNVVGVVKLRYWPLNEFKIYEGHHHHHH	not soluble
MGSDKIHHHHHHMDLASKYFNGVNWRYIDHSSGLEPMQSFAFDDTFCESVGKDISDNVVRTWIHQHTVILGIHDSRLPFLKDGIDYLTNEIGYNAIVRNSGGLGVVLDQGVLNISLMFKGQTETTIDEAFTVMYLLISKMFEDENVDIDTMEIEHSYCPGKFDLSIDGKKFAGISQRRVRGGIAVQIYLCVEGSGSERALMMQTFYEHALKGEVTKFKYPEIEPSCMASLETLLNKTITVQDVMFLLLYAIKDLGGVLNMTPITQEEWQRYDTYFDKMIERNKKMIDQMQ	not soluble

====

Experiment: soluble on expression in E. coli; label from the status in PepcDB or PDB records

Chain	soluble on expression in E. coli
MSLNTSRKERSVSTFSIVGYDPKTDELGIAVQSKFLGVGAIVPWAKAGVGAIATQSYANTSYGSKGLDLLARGKTAEETLALLINEDADRHLRQVGIVDAKGRAASFTGQGCYEWAGSMTGHCFAVQGNLLVSEETVKTMAQKFVQATGSLAERLLLTLEAGQCAGGDRRGKQSAALLIVKEKGGYGGFNDRLIDLRVDDHPEPIQELKRIFELQQLYFAKPKEQDQLPLTDDRISIIKSSLHSLGYLSLTQHWRDALQQFIATENLEGRMGTGTQTIDRVVFSFLQKKAKEEGHHHHHH	soluble
SLPVLAPVTKDPATSLYTIPFHDGASLVLDVAGPLVWSTCKGGQPPAEIPCSSPTCLLANAYPAPGCPAPSCGSDKHDKPCTAYPYNPVSGACAAGSLSHTRFVANTTDGSKPVSKVNVGVLAACAPSKLLASLPRGSTGVAGLANSGLALPAQVASAQKVANRFLLCLPTGGPGVAIFGGGPVPWPQFTQSMPYTPLVTKGGSPAHYISARSIVVGDTRVPVPEGALATGGVMLSTRLPYVLLRPDVYRPLMDAFTKALAAQHANGAPVARAVVAVAPFGVCYDTKTLGNNLGGYAVPNVQLGLDGGSDWTMTGKNSMVDVKQGTACVAFVEMKGVAAGDGRAPAVILGGAQMEDFVLDFDMEKKRLGFSRLPHFTGCGGL	soluble

====

Experiment: soluble on expression in E. coli; label from the status in PepcDB or PDB records
Endpoint name: soluble on expression in E. coli

Chain	Observed value
MKVVAFNGSPRRDGNTSILIDKVLNELKKEGITTEHIHIAGGKLRGCTACYKCFETLNNKCIIECDIINNCIEKMIEADGIILGSPTYFTDVTAEMKALIDRAGFVAKANDDILKRKVGAAVVSVRRAGGVHVFDTLNHFFSINQMISVGSDYWNLGMGLDIGDVQKDAEGLHTMELLGQNMAWILKKINELEHHHHHH	not soluble
MNVVVERKNVRNVRIQVLADGKVRVVAPPDFDVDSFISKHADWIKKKRAEIESLAEEIKGKERMLLLNGKFYHLVKDSGFEIKEGEEVGVVKYYSLRNLKRNLASILREELKRNVSFYSRLLGINYGRIFIKMQKTKWASCSSKGNLSFNLASLALPEKLREYIVVHELVHLLEPKHSRLFWETVGFYYPEYEEAERELKKYWIFVERNEVWRMLRALK	soluble
MAYSKIRQPKLSDVIEQQLEFLILEGTLRPGEKLPPERELAKQFDVSRPSLREAIQRLEAKGLLLRRQGGGTFVQSSLWQSFSDPLVELLSDHPESQFDLLETRHALEGIAAYYAALRSTDEDKDRIRELHHAIELAQESGDLDAESEAVLQYQIAVTEAAHNVVLLHLLRCMEPMLAQNVRQNFELLYARREMLPLVSTHRTRIFEAIMAGKPEEAREASHRHLAFIEEIMLDRSREESRRERALRRLEQRKN	not soluble
MGHHHHHHSHMEGMDVDLDPELMQKFSCLGTTDKDVLISEFQRLLGFQLNPAGCAFFLDMTNWSLQAAIGAYYDFESPNISVPSMSFVEDVTIGEGESIPPDTQFVKTWRIQNSDVIWVILSVEVGGLLGVTQQLSSFETEFNTQPHRKVEGNFNPFASPQKNRQSDENNLKDPGGSEFDSISKNTWAPAPDTWAPAPDQTEQDQNRLSQNSVNLSPSSHANNLSVVTYSKGLHGPYPFGQS	soluble
GMTGKISALDLASGELSEPTKAYFAKCEEKLGLVPNVLKAYAFDDKKLRAFTDIYNDLMLGESGLSKLDREMIAVAVSSINHCYYCLTAHGAAVRQLSGDPALGEMLVMNFRAADLSPRQTAMLEFAVKLTEEPAKIVEADRAALRKAGFSDRDIWDIASTAAFFNMSNRVAAAIDMRPNDEYHAMAR	soluble
IGKVNYNIGFNLSDNRAKVISYPNASKALWDSNGNTLYYNGMTIGEIWGYETEGIAKTDAQMTEWLASNDQSKIGSVWGAGDIMYRDLNGDGIVDKGNSTATDHGDLKKIGNSTPRLRFGLSLGADWKGFDIQMFFQGVMKRDLWLSGPMFWGADGGEWQSVGFDEHLDYFRPENTTSIFGANLNSYYPKAYLGDKGNKNKQTQTRYLQNGAYMRMKNLQIGYTFPKAWMNKAKIEKLRIYVSGENLFTISGIADMFDPEATAGNGFSNGKTYPLSKTISFGLNITL	not soluble

Numbers sourced from the DeepSol protein solubility set.
